# reported IC50; entries follow
tested on: 996289-038-R-J1-PDC spheroid viability; assay: Anticancer human tumor 996289-038-R-J1-PDC patient-derived colon adenocarcinoma cell line growth inhibition [PI3K]; conditions: curve of first compound; second compound 1 µM; spheroids with HUVEC and MSC
endpoint.label: IC50

- Cn1nccc1Nc1nccc(-c2ccn(C(CO)c3ccc(Cl)c(F)c3)c(=O)c2)n1 (centres undefined) + Cc1nc(NC(=O)N2CCCC2C(N)=O)sc1-c1ccnc(C(C)(C)C(F)(F)F)c1: 3530 nM
- CC(=O)c1c(C)c2cnc(Nc3ccc(N4CCNCC4)cn3)nc2n(C2CCCC2)c1=O + CC(Nc1ncnc2nc[nH]c12)c1cc2cccc(Cl)c2c(=O)n1-c1ccccc1: > 100 nM
- CC(C)n1nc(-c2ccc3oc(N)nc3c2)c2c(N)ncnc21 + COc1c(OCCCN2CCOCC2)ccc2c3n(c(=NC(=O)c4cnc(N)nc4)nc12)CCN3: < 0.316 nM
- Cn1cnc2c(F)c(Nc3ccc(Br)cc3Cl)c(C(=O)NOCCO)cc21 + COc1c(OCCCN2CCOCC2)ccc2c3n(c(=NC(=O)c4cnc(N)nc4)nc12)CCN3: < 9.49 nM

====

# reported viability, T/C; entries follow
tested on: 996289-038-R-J1-PDC spheroid viability; assay: Anticancer human tumor 996289-038-R-J1-PDC cell line growth inhibition [PI3K]; details: second compound 0.316 µM; first compound 0.001 µM; stronger effect = lower value; spheroids with HUVEC and MSC;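 also: spheroids exposed to compounds for seven days before viability read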;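 as to viability, T/C: luminescence used as a proxy for viable cell amount; percent viability relative to DMSO vehicle control as 100%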
endpoint.label: viability, T/C (%)

* Cn1ncnc1[C@H]1c2n[nH]c(=O)c3cc(F)cc(c23)N[C@@H]1c1ccc(F)cc1 + CC(Nc1ccc2c(c1)OCCn1cc(N3C(=O)OCC3C(F)F)nc1-2)C(N)=O | 77.8
* CC(=O)c1c(C)c2cnc(Nc3ccc(N4CCNCC4)cn3)nc2n(C2CCCC2)c1=O + CC(Nc1ccc2c(c1)OCCn1cc(N3C(=O)OCC3C(F)F)nc1-2)C(N)=O | 81.6
* CC(=O)c1c(C)c2cnc(Nc3ccc(N4CCNCC4)cn3)nc2n(C2CCCC2)c1=O + Cc1nc(NC(=O)N2CCCC2C(N)=O)sc1-c1ccnc(C(C)(C)C(F)(F)F)c1 | 78.1
* CC(C)n1nc(-c2ccc3oc(N)nc3c2)c2c(N)ncnc21 + COc1c(OCCCN2CCOCC2)ccc2c3n(c(=NC(=O)c4cnc(N)nc4)nc12)CCN3 | 32.9
* Cn1ncnc1[C@H]1c2n[nH]c(=O)c3cc(F)cc(c23)N[C@@H]1c1ccc(F)cc1 + COc1c(OCCCN2CCOCC2)ccc2c3n(c(=NC(=O)c4cnc(N)nc4)nc12)CCN3 | 39.1
* CC(=O)c1c(C)c2cnc(Nc3ccc(N4CCNCC4)cn3)nc2n(C2CCCC2)c1=O + COc1c(OCCCN2CCOCC2)ccc2c3n(c(=NC(=O)c4cnc(N)nc4)nc12)CCN3 | 31.6
* Cn1ncnc1[C@H]1c2n[nH]c(=O)c3cc(F)cc(c23)N[C@@H]1c1ccc(F)cc1 + Cc1nc(NC(=O)N2CCCC2C(N)=O)sc1-c1ccnc(C(C)(C)C(F)(F)F)c1 | 85
* Cn1ncnc1[C@H]1c2n[nH]c(=O)c3cc(F)cc(c23)N[C@@H]1c1ccc(F)cc1 + CC(Nc1ncnc2nc[nH]c12)c1cc2cccc(Cl)c2c(=O)n1-c1ccccc1 | 102
